Give pKi for every item shown.
Target: human vasopressin V1a receptor (Homo sapiens)
Sequence (P37288 whole entry): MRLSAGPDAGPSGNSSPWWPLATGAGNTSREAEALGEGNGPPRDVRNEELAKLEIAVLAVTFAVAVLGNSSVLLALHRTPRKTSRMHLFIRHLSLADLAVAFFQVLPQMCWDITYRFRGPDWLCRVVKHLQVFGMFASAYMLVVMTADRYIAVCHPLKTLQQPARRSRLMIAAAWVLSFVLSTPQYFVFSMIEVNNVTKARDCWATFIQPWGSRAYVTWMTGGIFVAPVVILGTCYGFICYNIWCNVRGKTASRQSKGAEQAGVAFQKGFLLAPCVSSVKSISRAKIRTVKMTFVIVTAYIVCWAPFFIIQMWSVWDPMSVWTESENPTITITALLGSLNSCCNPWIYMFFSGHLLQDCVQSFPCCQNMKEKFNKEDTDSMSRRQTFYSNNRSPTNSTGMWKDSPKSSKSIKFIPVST
Test: Receptor binding study, [3H]AVP displacement on CHO cell membranes, human V1a
Conditions: [3H]AVP displacement, CHO cell membrane, 25° C., one hour; read-out: Human V1a Ki
Numbers only, as −log10 of the molar value.

compound	pKi
C[C@H]1CCN(C(=O)c2ccc(-c3ccc4[nH]ccc4c3)c(OCCCN3CCN(C)CC3)c2)c2ccccc2N1	9.72
C[C@H]1CCN(C(=O)c2ccc(-c3ccc4[nH]ccc4c3)c(OCCCN3CCC(C(N)=O)CC3)c2)c2ccccc2N1	9.89
C[C@H]1CCN(C(=O)c2ccc(-c3ccc4[nH]ccc4c3)c(OCCCN3C(=O)CNC3=O)c2)c2ccccc2N1	9.89
CCCCN1CCN(CCOc2cc(C(=O)N3CC[C@H](C)Nc4ccccc43)ccc2-c2ccc3[nH]ccc3c2)CC1	9.64
CC1CCN(C(=O)c2ccc(-c3ccc4[nH]ccc4c3)c(OCCCN(C)C)c2)c2ccccc2N1 (centres unmarked)	9.72
C[C@H]1CCN(C(=O)c2ccc(-c3ccc(N)cc3)c(OCCCN)c2)c2ccccc2N1	9.39
C[C@H]1CCN(C(=O)c2ccc(-c3ccc4[nH]ccc4c3)c(OCCCN3CCC(N(C)C)CC3)c2)c2ccccc2N1	9.42

Pending compound:
Prompt: Quick one: pKi of C[C@H]1CCN(C(=O)c2ccc(-c3ccc4[nH]ccc4c3)c(OCCCN3CCC(N4CCOCC4)CC3)c2)c2ccccc2N1 ?
Response: 9.89

###

Give Ki for every item shown.
Target: human vasopressin V2 receptor (Homo sapiens)
Sequence (P30518 whole entry): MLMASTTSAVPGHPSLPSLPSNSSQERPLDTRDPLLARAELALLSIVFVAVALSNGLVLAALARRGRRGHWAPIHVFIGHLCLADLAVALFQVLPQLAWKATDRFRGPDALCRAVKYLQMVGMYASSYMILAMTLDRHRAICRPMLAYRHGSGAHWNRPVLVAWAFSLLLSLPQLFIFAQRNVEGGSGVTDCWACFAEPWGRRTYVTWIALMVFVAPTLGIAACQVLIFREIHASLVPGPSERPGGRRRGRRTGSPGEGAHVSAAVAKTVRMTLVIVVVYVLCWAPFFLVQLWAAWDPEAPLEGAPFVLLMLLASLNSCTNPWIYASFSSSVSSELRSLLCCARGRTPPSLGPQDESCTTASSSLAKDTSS
Assay: Receptor binding study, [3H]AVP displacement on CHO cell membranes, human V2
Details: [3H]AVP displacement, CHO cell membrane, 25° C., one hour; read-out: Human V2 Ki
Numbers only, in nM.

Dear reader, for each entry below, please note its Ki.
1. CC1CCN(C(=O)c2ccc(-c3ccc4[nH]ccc4c3)c(OCCCN(C)C)c2)c2ccccc2N1 (stereo not drawn)
2. CNc1ccc(-c2ccc(C(=O)N3CC[C@H](C)Nc4ccccc43)cc2OCCCN2C(=O)CNC2=O)cc1
3. C[C@H]1CCN(C(=O)c2ccc(-c3ccc4[nH]ccc4c3)c(OCCCCN3CCN(C)CC3)c2)c2ccccc2N1

Response:
[34, 2, 3.6]

###

Molecular target: UniProt P37288
Assay: Receptor binding study, [3H]AVP displacement on CHO cell membranes, human V1a
Details: [3H]AVP displacement, CHO cell membrane, 25° C., one hour; read-out: Human V1a Ki
Give pKi for every item shown.
Give bare numbers, as −log10 of the molar value.

# example entries with known answers
compound	value_observed
C[C@@H]1CCN(C(=O)c2ccc(-c3ccc4[nH]ccc4c3)c(OCCCN)c2)c2ccccc2N1 [Example 55]	9.51
C[C@H]1CCN(C(=O)c2ccc(-c3ccc4[nH]ccc4c3)c(OCCCN(C)CCN(C)C)c2)c2ccccc2N1 [Example 112]	9.38

Pending compound:
Prompt: Quick one: pKi of C[C@H]1CCN(C(=O)c2ccc(-c3ccc4[nH]ccc4c3)c(N3CCN(C)CC3)c2)c2ccccc2N1 [Example 149] ?
Response: 9.54
